Tested on: UACC-62 melanoma
Assay: NCI-60 one-dose screen, 48 h
Details: 10 µM unless noted
About 83,000 compounds went through this panel and 20% of them were active in at least one assay; those are over-represented in the sample as a whole. Calls of active or inactive are those of the source. How the source made its calls: active means growth percent below 10; inactive means the rest.
Respond using exactly one of the listed classes: active, inactive

Field: example entries. Status: answers known.
>>> assignedlabel("CN1C(=O)c2cc(Cl)nc3c(NC(=O)c4cccc(Cl)c4)c(Cl)c(NC(=O)c4cccc(Cl)c4)c1c23")
"active"
>>> assignedlabel("Clc1ccc2c(NCCCNC3CCCCC3)ccnc2c1")
"inactive"
>>> assignedlabel("O=CN1N=C(c2ccc(F)cc2)CC1c1cccc(Nc2ccnc3cc(C(F)(F)F)ccc23)c1 (configuration not stated)")
"inactive"
>>> assignedlabel("COc1cc(/C=C/C(=O)c2cccs2)ccc1OCc1ccc(Cl)nc1")
"inactive"
>>> assignedlabel("C=C(C)[C@@H]1CC[C@]2(C(=O)OCCOCCOCC[P+](c3ccccc3)(c3ccccc3)c3ccccc3)CC[C@]3(C)[C@H](CC[C@@H]4[C@@]5(C)CC[C@H](C)C(C)(C)[C@@H]5CC[C@]43C)[C@@H]12")
"active"
>>> assignedlabel("COc1ccc(/C=C(/C(=O)N2CCCC2)c2cc(OC)c(OC)c(OC)c2)cc1")
"inactive"
>>> assignedlabel("Cc1ccccc1NC(=O)c1sc2nc(C)c(C(C)O)cc2c1N (configuration not stated)")
"inactive"
>>> assignedlabel("O=C(CSC(=S)N1CCCCC1)Nc1ccccc1")
"inactive"
>>> assignedlabel("Nc1cccc(C(=O)Nc2ccc3c(O)c(N=Nc4ccc(N=Nc5ccc(S(=O)(=O)O)cc5)cc4)c(S(=O)(=O)O)cc3c2)c1")
"inactive"
>>> assignedlabel("C#C[C@@]1(O)[C@@H](CO)O[C@@H](n2cnc3c(-c4ccccc4)ncnc32)[C@@H]1O")
"inactive"

Could you please tell me the result logged for "COc1ccc2[nH]c(=O)c(/C=C/C(=O)/C=C/c3ccc(O)c(OC)c3)cc2c1" in this assay?
inactive

# fetch the recorded call for "CC(/C=C/c1ccccc1)=N/NC(=O)c1ccncc1" here
inactive

Which outcome was entered for the molecule "Nc1ccccc1NC(=O)c1ccc(CSc2nc(N3CCOCC3)c3cccn3n2)cc1" in this test?
active

How did this test come out for "C[C@@H]1C(=O)[C@@H]2C[C@@H](O)[C@@H](O)C[C@]2(C)[C@H]2CC[C@@]3(C)C(=C12)CC[C@@H]3[C@@](C)(O)[C@H](O)CCC(C)(C)O" ?
inactive

Please share the test call associated with OCCNc1nc(NCCO)nc(Nc2ccc(C3=NN(c4cc(Cl)cc(Cl)c4)C(c4ccccc4)C3)cc2)n1 (configuration not stated) .
inactive

----------
Test system: UACC-257 melanoma
Assay: NCI-60 one-dose screen, 48 h
Conditions: 10 µM unless noted
The panel holds about 83,000 compounds, 20% with a hit somewhere; the sample as a whole holds those more often. Active and inactive are the calls of the source. How the source made its calls: active means growth percent below 10; inactive means the rest.
Valid outcomes are listed here; reply with one: active, inactive

>>> assignedlabel("O=C1C(Cl)=C(NCCCN(CCCNC2=C(Cl)C(=O)c3ccccc3C2=O)C2=C(Cl)C(=O)c3ccccc3C2=O)C(=O)c2ccccc21")
"inactive"

Now for another entry.
Call for entry "COc1cc(-c2cn(-c3ccc(Cl)c(Cl)c3)c(=O)[nH]2)cc(OC)c1OC" :
inactive
